Each recorded value in this set is attributed to PubChem BioAssay (NCI).

Below, each entry is listed alongside its reported TGI.
Test system: SF-268 CNS
Assay: NCI tumour cell line growth inhibition, 48 h

Reference set (4 entries):
{"COMPOUND": "N#Cc1ccc(-c2nc3c(N)ncnc3o2)cc1", "RESULT": "> 100 µM"}
{"COMPOUND": "CC(C)(C)C1CCC(=O)/C(=C/CC2CC(=O)N(c3ccccc3)C(=O)C2)C1 (centres undefined)", "RESULT": "47.1 µM"}
{"COMPOUND": "O=C1C2=Cc3ccccc3OC2(O)Oc2cc3ccccc3cc21 (centres undefined)", "RESULT": "> 100 µM"}
{"COMPOUND": "COC(=O)c1ccc2[nH]c(O)c(C(=Nc3ccc(N(C)C(=O)CN4CCN(C)CC4)cc3)c3ccc4c(c3)OCO4)c2c1", "RESULT": "3.86 µM"}

Here's the next entry for you.
Query (compound): `CCOP(=Nc1ccc(N(C)C)cc1)(OCC)OCC` ; field requested: TGI > 100 µM

---

Test system: LOX IMVI melanoma
Assay: NCI tumour cell line growth inhibition, 48 h
MEASURED_PARAMETER: TGI

Reference set (5 entries):
{"MOLECULE": "C#CC1(O)C(COP(=O)(O)OCC(COP(=O)(O)OCC2OC(n3cc(F)c(=O)[nH]c3=O)CC2O)OCCCCCCCCCCCCCCCCCC)OC(n2ccc(N)nc2=O)C1O (configuration not stated)", "TARGET_DESC": "LOX IMVI melanoma", "TGI": "> 27.7 µM"}
{"MOLECULE": "COc1ccc(C(C#N)NC23CC4CC(CC(C4)C2)C3)cc1 (configuration not stated)", "TARGET_DESC": "LOX IMVI melanoma", "TGI": "> 100 µM"}
{"MOLECULE": "CC1(C)OCN(c2ccc(N3CCOCC3)cc2)Cn2c1nc1ccccc12", "TARGET_DESC": "LOX IMVI melanoma", "TGI": "> 100 µM"}
{"MOLECULE": "CCN1C(=O)/C(=C/c2c(Cl)[nH]c3cc(C)c(OC)cc23)c2ccccc21", "TARGET_DESC": "LOX IMVI melanoma", "TGI": "> 100 µM"}
{"MOLECULE": "O=C1CS(=O)(=O)C(c2cccc(Oc3ccccc3)c2)N1c1ccc(Cl)cc1 (configuration not stated)", "TARGET_DESC": "LOX IMVI melanoma", "TGI": "29.1 µM"}

Query (molecule): NC(CSC(c1ccccc1)(c1ccccc1)c1ccccc1)C(=O)NCC(=O)O (configuration not stated) ; field requested: TGI > 100 µM

Query (molecule): `CSc1c(C(=O)Nc2ccccc2)c(N)n(N)c(=O)c1C#N` ; field requested: TGI > 100 µM

---

Test system: UO-31 renal
Assay: NCI tumour cell line growth inhibition, 48 h
MEASURED_PARAMETER: TGI

Reference set (2 entries):
{"COMPOUND": "CC(=O)c1ccc(NC(=O)/C(CC(=O)c2sc(-c3cccnc3)nc2C)=N/NC(N)=O)cc1", "TGI": "> 100 µM"}
{"COMPOUND": "CCC[CH2][Sn]([CH2]CCC)([O]C(=O)CN)[O]C(=O)CN", "TGI": "> 100 µM"}

I'm curious: which TGI was measured for O=C(NN1C(=O)C(Cl)C1c1ccc(Cl)cc1)c1c(Cl)c(Cl)c(Cl)c(Cl)c1-c1nc2ccccc2[nH]1 (stereo not drawn) tested on UO-31 renal? > 100 µM

---

Test system: MOLT-4 leukemia
Assay: NCI tumour cell line growth inhibition, 48 h
Below, each entry is listed alongside its reported TGI.

Reference set (2 entries):
{"COMPOUND": "O=C(NN1C(=O)C(Cl)C1c1ccc(Cl)cc1)c1c(Cl)c(Cl)c(Cl)c(Cl)c1-c1nc2ccccc2[nH]1 (stereo not drawn)", "TARGET_DESC": "MOLT-4 leukemia", "TGI": "> 100 µM"}
{"COMPOUND": "N[C@@H]1CCN(c2c(F)cc3c(=O)c(C(=O)O)cn4c3c2Oc2c-4ccc3c2ccc2ccccc23)C1", "TARGET_DESC": "MOLT-4 leukemia", "TGI": "> 100 µM"}

Query (compound): O=C1/C(=C/C=C/c2ccccc2)CCC1CNc1ccccc1 (stereo not drawn) ; field requested: TGI > 100 µM

---

Tested on: HCC-2998 colon
Assay: NCI tumour cell line growth inhibition, 48 h
Below, each entry is listed alongside its reported TGI.

{"COMPOUND": "COC(=O)C1Cc2cc3c(cc2C1=O)CCC3 (stereo not drawn)", "TGI": "> 100 µM"}

Query (compound): `O=C1COc2cc(NC(=S)Nc3ccccc3)ccc2N1` ; field requested: TGI > 100 µM

Query (compound): `COc1cc(NS(=O)(=O)c2ccc(C)cc2)c2nccnc2c1` ; field requested: TGI > 100 µM

---

For reference, GI50 measured on MDA-MB-435:

Reference set (7 entries):
{"MOLECULE": "C=C(C)[C@@H]1CC[C@]2(COCCCN)CC[C@]3(C)[C@H](CC[C@@H]4[C@@](C)(CCCNCCCN)[C@H](C(=C)C)CC[C@]43C)[C@@H]12", "RESULT": "1840 nM"}
{"MOLECULE": "O=C1C=CC(=O)C2C1C1(Cl)C(Cl)=C(Cl)C2(Cl)C1(Cl)Cl (stereo not drawn)", "RESULT": "1690 nM"}
{"MOLECULE": "Cc1ccc(C2=C(c3ccc(C)cc3)C3(c4ccc(C)cc4)C4C(=O)OC(=O)C4C2(c2ccc(C)cc2)S3=O)cc1 (stereo not drawn)", "RESULT": "17500 nM"}
{"MOLECULE": "CCN(CC)CCNC(Cc1ccccc1)c1ccc(OCc2ccccc2)cc1 (stereo not drawn)", "RESULT": "3160 nM"}
{"MOLECULE": "Cc1cn(-c2cc(NC(=O)c3cccc(C#Cc4cccc5[nH]nc(N)c45)c3)cc(C(F)(F)F)c2)cn1", "RESULT": "3740 nM"}
{"MOLECULE": "C#CC1(O)C(COP(=O)(O)OCC(COP(=O)(O)OCC2OC(n3cc(F)c(=O)[nH]c3=O)CC2O)OCCCCCCCCCCCCCCCCCC)OC(n2ccc(N)nc2=O)C1O (stereo not drawn)", "RESULT": "566 nM"}
{"MOLECULE": "COc1ccc2c(c1)C(=O)/C(=C/c1cccc(OCC(=O)c3ccccc3)c1)O2", "RESULT": "3400 nM"}

Here's the next entry for you.
I'm curious: which GI50 was measured for `C[C@]12CCc3sc(Nc4ccc(OC(F)(F)F)cc4)nc3C1=CC[C@@H]1[C@@H]2CC[C@]2(C)C(=O)CC[C@@H]12` tested on MDA-MB-435? 2720 nM

---

Tested on: RXF 393 renal
Test: NCI tumour cell line growth inhibition, 48 h
MEASURED_PARAMETER: TGI

Reference set (4 entries):
{"MOLECULE": "O=C1CS(=O)(=O)C(c2cccc(Oc3ccccc3)c2)N1c1ccc(Cl)cc1 (stereo not given)", "TGI": "43 µM"}
{"MOLECULE": "O=C(O)c1ccc(CN2CCC(CN[C@@H]3C[C@H]3c3ccccc3)CC2)cc1", "TGI": "> 100 µM"}
{"MOLECULE": "CC12C=CC(C)(C3C(=O)C4C(C(=O)C31)C1(C)C=CC4(C)S1=O)S2=O (stereo not given)", "TGI": "> 100 µM"}
{"MOLECULE": "CCCCCCCCCCCC(=O)OCCOCCOCCOCCOCCOC(=O)CCCCCCCCCCC", "TGI": "> 100 µM"}

I'm curious: which TGI was measured for ONC1=Nc2cc(Cl)ccc2C(=S)N2CSCC12 (stereo not given) tested on RXF 393 renal? > 100 µM

---

Below, each entry is listed alongside its reported TGI.
Tested on: MALME-3M melanoma
Test: NCI tumour cell line growth inhibition, 48 h
Give the value in µM but do not write µM after it.

{"COMPOUND": "CN(C)CCC(=O)N1C/C(=C\\c2ccc(Cl)c(Cl)c2)C(=O)/C(=C/c2ccc(Cl)c(Cl)c2)C1", "TARGET_DESC": "MALME-3M melanoma", "MEASURED_PARAMETER": "TGI", "VALUE_UNITS": "µM", "READOUT_NUMBER": 1.51}

Here's the next entry for you.
I'm curious: which TGI was measured for Cc1c(N2C(=O)C(Cl)C2/C=C/c2ccccc2)c(=O)n(-c2ccccc2)n1C (centres undefined) tested on MALME-3M melanoma? 25

---

System: OVCAR-5 ovarian
Experiment: NCI tumour cell line growth inhibition, 48 h
MEASURED_PARAMETER: TGI (µM)
Give the value in µM but do not write µM after it.

{"MOL_SMILES": "N[C@H](C(=O)O)[C@@H]1CC(Cl)=NO1", "MEASURED_PARAMETER": "TGI", "READOUT_NUMBER": 648}

Query (compound): `C=CC[C@]1(/C=N/O)CN(S(=O)(=O)CC[Si](C)(C)C)C[C@H]2CC=CC[C@H]21` ; field requested: TGI 44.2
